- Subject of test: MPXV VP39 2′-O-RNA methyltransferase (Monkeypox virus, UniProt A0A7H0DN74)
- Sequence (A0A7H0DN74 whole entry, looked up): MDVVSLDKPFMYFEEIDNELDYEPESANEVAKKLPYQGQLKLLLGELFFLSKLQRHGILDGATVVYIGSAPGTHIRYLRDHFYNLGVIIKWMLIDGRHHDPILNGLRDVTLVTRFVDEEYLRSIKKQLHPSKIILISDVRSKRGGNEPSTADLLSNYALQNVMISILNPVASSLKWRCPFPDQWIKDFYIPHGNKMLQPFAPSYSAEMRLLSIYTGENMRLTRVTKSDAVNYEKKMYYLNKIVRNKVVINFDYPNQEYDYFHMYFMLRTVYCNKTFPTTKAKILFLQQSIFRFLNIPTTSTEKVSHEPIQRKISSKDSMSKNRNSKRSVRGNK
- Assay protocol: biochemical
Label scheme for LogIC50, fit of all data points: lower than -0.9 is not satisfied, -0.9 and above is satisfied.

| Compound | Subject of test | Assigned category |
| --- | --- | --- |
| Nc1ncnc2c1c(C#Cc1cnc3ccccc3c1)cn2[C@@H]1O[C@H](CSCC[C@H](N)C(=O)O)[C@@H](O)[C@H]1O | MPXV VP39 2′-O-RNA methyltransferase (Monkeypox virus, UniProt A0A7H0DN74) | not satisfied |
| Nc1ncnc2c1c(C#Cc1ccccc1)cn2[C@@H]1O[C@H](CSCC[C@H](N)C(=O)O)[C@@H](O)[C@H]1O | MPXV VP39 2′-O-RNA methyltransferase (Monkeypox virus, UniProt A0A7H0DN74) | not satisfied |
| Nc1ncnc2c1c(C#Cc1nc3ccccc3[nH]1)cn2[C@@H]1O[C@H](CSCC[C@H](N)C(=O)O)[C@@H](O)[C@H]1O | MPXV VP39 2′-O-RNA methyltransferase (Monkeypox virus, UniProt A0A7H0DN74) | satisfied |
| Nc1ncnc2c1c(C#Cc1cccc3ccccc13)cn2[C@@H]1O[C@H](CSCC[C@H](N)C(=O)O)[C@@H](O)[C@H]1O | MPXV VP39 2′-O-RNA methyltransferase (Monkeypox virus, UniProt A0A7H0DN74) | not satisfied |
| Nc1ncnc2c1ncn2[C@@H]1O[C@H](C[C@@H](N)CC[C@H](N)C(=O)O)[C@@H](O)[C@H]1O [sinefungin, reference compound] | MPXV VP39 2′-O-RNA methyltransferase (Monkeypox virus, UniProt A0A7H0DN74) | satisfied |
| C=Cc1cn([C@@H]2O[C@H](CSCC[C@H](N)C(=O)O)[C@@H](O)[C@H]2O)c2ncnc(N)c12 | MPXV VP39 2′-O-RNA methyltransferase (Monkeypox virus, UniProt A0A7H0DN74) | satisfied |
| Nc1ncnc2c1c(C#Cc1ccc3ccccc3c1)cn2[C@@H]1O[C@H](CSCC[C@H](N)C(=O)O)[C@@H](O)[C@H]1O | MPXV VP39 2′-O-RNA methyltransferase (Monkeypox virus, UniProt A0A7H0DN74) | not satisfied |

Okay, next one:
Incoming: Check this compound for LogIC50, fit of all data points at or above -0.9: CCc1cn([C@@H]2O[C@H](CSCC[C@H](N)C(=O)O)[C@@H](O)[C@H]2O)c2ncnc(N)c12
Outgoing: not satisfied
